# tested on: pooled human IgG
reported property: Enzyme Activity Endpoint Assay (purified): IgG (ng/µL)

| protein | result unit | result value |
| --- | --- | --- |
| PRT-143 (protein) MANQEIRYSEVTPYHITSVWTKGVTPPANFTQGEDVFHAPYVANQGWYDITKTFNGKDDLLCGAATAGNMLHWWFDQNKDQIKRYLEEHPEKQKINFNGEQMFDVKEAIDTKNHQLDSKLFEYFKEKAFPYLSTKHLGVFPDHVIDMFINGYRLSLTNHGPTPVKEGSKDPRGGIFDAVFTRGDQSKLLTSRHDFKEKTLNEISQLIKQELTEGKALGLSHTYANVRINHVINLWGADFDAEGNLEAIYVTDSDSNASIGMKKYFVGVNSAGKVAISAKEIKEDNIGAQVLGLFTLSTGQDSWNQTN | ng/µL | 0 |
